Molecular target: Prostaglandin D2 receptor 2 (Homo sapiens)
Sequence (Q9Y5Y4 whole entry): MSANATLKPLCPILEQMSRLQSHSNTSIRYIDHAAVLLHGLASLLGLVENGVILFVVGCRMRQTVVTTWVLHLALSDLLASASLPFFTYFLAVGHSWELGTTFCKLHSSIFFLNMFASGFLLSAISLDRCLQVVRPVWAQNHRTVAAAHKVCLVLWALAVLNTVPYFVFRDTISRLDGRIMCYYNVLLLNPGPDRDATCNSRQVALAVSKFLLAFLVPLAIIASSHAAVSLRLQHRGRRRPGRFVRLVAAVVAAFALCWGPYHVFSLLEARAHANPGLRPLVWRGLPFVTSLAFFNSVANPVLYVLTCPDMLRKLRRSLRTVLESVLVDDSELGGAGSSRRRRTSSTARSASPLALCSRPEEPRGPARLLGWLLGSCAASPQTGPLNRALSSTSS
Assay: Displacement of [3H]PGD2 from recombinant human CRTH2 receptor expressed in HEK293 cell membranes after 90 mins by scintillation counting analysis
pIC50: −log10 of the molar value.
# binning rule on pIC50: band A: < 7; band B: ≥ 7 and < 8; band C: ≥ 8

Solved entries:
| compound-structure-string | classification |
| --- | --- |
| Cc1ccc2c3c(n(CC(=O)O)c2c1)CCN(C(=O)c1ccccc1)C3 | band A |
| CCc1ccc(-c2ccc(C(=O)N3CCc4c(c5cccc(Cl)c5n4CC(=O)O)C3)cc2)cc1 | band B |
| O=C(O)Cn1c2c(c3cc(Cl)ccc31)CN(C(=O)c1ccccc1)CC2 | band C |
| O=C(O)Cn1c2c(c3cc(F)cc(Cl)c31)CN(C(=O)c1cccc(Cl)c1)CC2 | band A |
| O=C(O)Cn1c2c(c3cc(F)cc(F)c31)CN(C(=O)c1ccccc1)CC2 | band B |
| O=C(O)Cn1c2c(c3cc(Cl)ccc31)CN(C(=O)c1cccc3ccccc13)CC2 | band C |

Now for a further molecule.
# input Which class does "O=C(O)Cn1c2c(c3cc(F)ccc31)CN(C(=O)Cc1c[nH]c3ccccc13)CC2" fall in?
# output band C

* * *

Molecular target: Prostaglandin E2 receptor EP1 subtype (Homo sapiens)
Sequence (P34995 whole entry): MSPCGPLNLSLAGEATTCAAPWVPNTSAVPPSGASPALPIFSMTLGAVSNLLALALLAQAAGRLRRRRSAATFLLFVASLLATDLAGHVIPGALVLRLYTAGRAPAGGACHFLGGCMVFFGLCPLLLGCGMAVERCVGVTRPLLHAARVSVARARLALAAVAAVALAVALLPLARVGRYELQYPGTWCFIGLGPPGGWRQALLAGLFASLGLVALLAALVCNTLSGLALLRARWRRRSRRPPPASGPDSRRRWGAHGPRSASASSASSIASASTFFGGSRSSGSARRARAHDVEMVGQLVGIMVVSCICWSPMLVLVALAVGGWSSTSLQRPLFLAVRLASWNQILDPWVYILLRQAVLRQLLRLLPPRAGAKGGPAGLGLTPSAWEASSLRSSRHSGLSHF
Assay: Antagonist activity at human prostanoid EP1 receptor expressed in CHOK1 cells assessed as inhibition of PGE2-induced calcium flux after 60 mins by FLIPR assay
pIC50: −log10 of the molar value.
Catalogue of pIC50 readings, one per entry.

Take a look at these entries with their results.
| compound-structure-string | tested-on | pIC50 |
| --- | --- | --- |
| O=C(O)Cn1c2c(c3cc(F)ccc31)CN(C(=O)c1cccs1)CC2 | Prostaglandin E2 receptor EP1 subtype (Homo sapiens) | < 4.60 |
| O=C(O)Cn1c2c(c3cc(F)ccc31)CN(C(=O)Cc1cccc3ccccc13)CC2 | Prostaglandin E2 receptor EP1 subtype (Homo sapiens) | < 4.60 |
| O=C(O)Cn1c2c(c3cc(Cl)ccc31)CN(C(=O)c1cccc3ccccc13)CC2 | Prostaglandin E2 receptor EP1 subtype (Homo sapiens) | < 4.60 |
| O=C(O)Cn1c2c(c3cc(F)cc(Cl)c31)CN(C(=O)c1cccc3ccccc13)CC2 | Prostaglandin E2 receptor EP1 subtype (Homo sapiens) | < 4.60 |
| COc1ccc2c(c1)c1c(n2CC(=O)O)CCN(C(=O)c2ccccc2)C1 | Prostaglandin E2 receptor EP1 subtype (Homo sapiens) | < 4.60 |

# input Dear colleague, I am looking for the recorded pIC50 of the following molecule: "O=C(O)Cn1c2c(c3cc(F)ccc31)CN(C(=O)Cc1c[nH]c3ccccc13)CC2"
# output < 4.60

# input Dear colleague, I am looking for the recorded pIC50 of the following molecule: "Cc1ccc2c(c1)c1c(n2CC(=O)O)CCN(C(=O)c2cccc3ccccc23)C1"
# output < 4.60

# input Dear colleague, I am looking for the recorded pIC50 of the following molecule: "O=C(O)Cn1c2c(c3ccccc31)CN(C(=O)c1cccc3ccccc13)CC2"
# output < 4.60

* * *

Tested on: Rattus norvegicus
Assay: AUC(0 to last) in Wistar rat at 1 mg/kg, iv and 10 mg/kg, po
Assay type: ADME, organism-based, Plasma
Conditions: in vivo
quantity-kind: AUClast (ng·h/mL)
Answer with a number only, understood to be in ng·h/mL.

Take a look at these entries with their results.
| compound-structure-string | quantity-kind | result-number |
| --- | --- | --- |
| O=C(O)Cn1c2c(c3cc(F)ccc31)CN(C(=O)c1cccc(Cl)c1)CC2 | AUClast | 6450 |
| O=C(O)Cn1c2c(c3ccccc31)CN(C(=O)c1ccccc1)CC2 | AUClast | 6300 |
| O=C(O)Cn1c2c(c3cc(F)ccc31)CN(C(=O)c1cccs1)CC2 | AUClast | 244 |

Please examine the following record next.
# input Dear colleague, I am looking for the recorded AUClast of the following compound: "O=C(O)Cn1c2c(c3ccccc31)CN(C(=O)c1cccc3ccccc13)CC2"
# output 57300

* * *

Assay: Protein binding in plasma (unknown origin)
Format: ADME, cell-free
Details: read-out: PPB
quantity-kind: fraction unbound

Take a look at these entries with their results.
| compound-structure-string | fraction unbound |
| --- | --- |
| O=C(O)Cn1c2c(c3cc(Cl)ccc31)CN(C(=O)c1cccc3ccccc13)CC2 | < 0.03 |
| O=C(O)Cn1c2c(c3cc(F)cc(F)c31)CN(C(=O)c1ccccc1)CC2 | < 0.03 |
| O=C(O)Cn1c2c(c3cc(Cl)ccc31)CN(C(=O)c1ccccc1)CC2 | < 0.03 |
| O=C(O)Cn1c2c(c3cc(F)ccc31)CN(C(=O)Cc1c[nH]c3ccccc13)CC2 | < 0.03 |

# input Dear colleague, I am looking for the recorded fraction unbound of the following molecule: "COc1ccc2c(c1)c1c(n2CC(=O)O)CCN(C(=O)c2ccccc2)C1"
# output < 0.03

# input Dear colleague, I am looking for the recorded fraction unbound of the following molecule: "O=C(O)Cn1c2c(c3cc(F)ccc31)CN(C(=O)CCc1cccc3ccccc13)CC2"
# output < 0.03

# input Dear colleague, I am looking for the recorded fraction unbound of the following molecule: "O=C(O)Cn1c2c(c3cc(F)cc(Cl)c31)CN(C(=O)c1cccc3ccccc13)CC2"
# output < 0.03

# input Dear colleague, I am looking for the recorded fraction unbound of the following molecule: "O=C(O)Cn1c2c(c3cccc(Cl)c31)CN(C(=O)c1ccccc1)CC2"
# output < 0.03

# input Dear colleague, I am looking for the recorded fraction unbound of the following molecule: "Cc1ccc2c(c1)c1c(n2CC(=O)O)CCN(C(=O)c2ccccc2)C1"
# output < 0.03

# input Dear colleague, I am looking for the recorded fraction unbound of the following molecule: "Cc1ccc2c3c(n(CC(=O)O)c2c1)CCN(C(=O)c1ccccc1)C3"
# output < 0.03

* * *

Experiment: Solubility of the compound in aqueous buffer at pH 7
Type: physicochemical
quantity-kind: log10 solubility (log10 of the value in µg/mL)
Please keep in mind that the values are log10 of solubility expressed in µg/mL.

Take a look at these entries with their results.
| compound-structure-string | result-number |
| --- | --- |
| O=C(O)Cn1c2c(c3cc(F)ccc31)CN(C(=O)c1cccc(Cl)c1)CC2 | 3.00 |
| O=C(O)Cn1c2c(c3ccccc31)CN(C(=O)c1cccc3ccccc13)CC2 | 2.92 |

# input Dear colleague, I am looking for the recorded log10 solubility of the following compound: "O=C(O)Cn1c2c(c3cc(F)ccc31)CN(C(=O)c1cccc3ccccc13)CC2"
# output 2.94

# input Dear colleague, I am looking for the recorded log10 solubility of the following compound: "CCc1ccc(-c2ccc(C(=O)N3CCc4c(c5ccccc5n4CC(=O)O)C3)cc2)cc1"
# output 1.48

# input Dear colleague, I am looking for the recorded log10 solubility of the following compound: "O=C(O)Cn1c2c(c3cc(F)ccc31)CN(C(=O)c1cccs1)CC2"
# output 2.97

* * *

Experiment: Solubility of the compound in water
Assay type: physicochemical
quantity-kind: solubility (µg/mL)
Answer with a number only, understood to be in µg/mL.

# input Dear colleague, I am looking for the recorded solubility of the following compound: "O=C(O)Cn1c2c(c3ccccc31)CN(C(=O)c1cccc3ccccc13)CC2"
# output 335

* * *

Molecular target: Cytochrome P450 2D6 (Homo sapiens)
Sequence (P10635 whole entry): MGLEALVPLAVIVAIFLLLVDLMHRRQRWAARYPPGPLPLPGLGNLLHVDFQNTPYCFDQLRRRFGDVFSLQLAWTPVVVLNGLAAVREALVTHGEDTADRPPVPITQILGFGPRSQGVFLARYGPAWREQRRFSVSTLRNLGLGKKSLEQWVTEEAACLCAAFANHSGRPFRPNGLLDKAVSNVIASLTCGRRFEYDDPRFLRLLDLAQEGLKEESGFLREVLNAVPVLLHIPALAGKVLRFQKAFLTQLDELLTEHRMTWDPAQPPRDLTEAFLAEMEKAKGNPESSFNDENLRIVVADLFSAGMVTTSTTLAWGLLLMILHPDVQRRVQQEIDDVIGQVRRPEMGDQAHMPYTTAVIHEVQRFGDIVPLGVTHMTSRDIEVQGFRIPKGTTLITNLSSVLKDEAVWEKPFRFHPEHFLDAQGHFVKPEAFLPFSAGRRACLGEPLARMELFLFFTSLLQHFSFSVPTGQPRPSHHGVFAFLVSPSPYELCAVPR
pIC50: −log10 of the molar value.
Catalogue of pIC50 readings, one per entry.

| compound-structure-string | tested-on | result |
| --- | --- | --- |
| O=C(O)Cn1c2c(c3cc(F)ccc31)CN(C(=O)Cc1cccc3ccccc13)CC2 | Cytochrome P450 2D6 (Homo sapiens) | < 4.30 |

# input Record lookup: for Cytochrome P450 2D6 (Homo sapiens), what pIC50 belongs to "O=C(O)Cn1c2c(c3cc(F)ccc31)CN(C(=O)c1cccc3ccccc13)CC2" ?
# output < 4.30

# input Record lookup: for Cytochrome P450 2D6 (Homo sapiens), what pIC50 belongs to "O=C(O)Cn1c2c(c3cc(F)ccc31)CN(C(=O)c1cccc(Cl)c1)CC2" ?
# output < 4.30

# input Record lookup: for Cytochrome P450 2D6 (Homo sapiens), what pIC50 belongs to "O=C(O)Cn1c2c(c3cc(F)ccc31)CN(C(=O)Cc1c[nH]c3ccccc13)CC2" ?
# output < 4.30

# input Record lookup: for Cytochrome P450 2D6 (Homo sapiens), what pIC50 belongs to "O=C(O)Cn1c2c(c3ccccc31)CN(C(=O)c1cccc(Cl)c1)CC2" ?
# output < 4.30

* * *

Biological target: Prostaglandin D2 receptor (Homo sapiens)
Sequence (Q13258 whole entry): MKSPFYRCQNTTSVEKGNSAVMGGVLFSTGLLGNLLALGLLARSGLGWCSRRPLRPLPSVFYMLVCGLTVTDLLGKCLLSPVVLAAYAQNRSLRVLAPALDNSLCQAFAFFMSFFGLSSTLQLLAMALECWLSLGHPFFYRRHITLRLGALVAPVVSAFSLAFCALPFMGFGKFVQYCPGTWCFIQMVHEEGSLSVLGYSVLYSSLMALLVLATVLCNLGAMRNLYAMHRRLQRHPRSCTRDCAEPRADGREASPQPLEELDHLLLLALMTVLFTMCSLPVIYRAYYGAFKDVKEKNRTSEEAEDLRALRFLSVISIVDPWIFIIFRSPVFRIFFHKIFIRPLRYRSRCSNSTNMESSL
Experiment: Displacement of [3H]PGD2 from recombinant human prostanoid DP1 receptor expressed in CHO cells after 90 mins by scintillation counting analysis
Catalogue of IC50 readings, one per entry.
Answer with a number only, understood to be in nM.

# input Dear colleague, I am looking for the recorded IC50 of the following compound: "O=C(O)Cn1c2c(c3cc(C(F)(F)F)ccc31)CN(C(=O)c1cccc3ccccc13)CC2"
# output 2200

# input Dear colleague, I am looking for the recorded IC50 of the following compound: "CCc1ccc(-c2ccc(C(=O)N3CCc4c(c5ccccc5n4CC(=O)O)C3)cc2)cc1"
# output 780

# input Dear colleague, I am looking for the recorded IC50 of the following compound: "O=C(O)Cn1c2c(c3cc(F)cc(Cl)c31)CN(C(=O)c1cccc(Cl)c1)CC2"
# output 4100

# input Dear colleague, I am looking for the recorded IC50 of the following compound: "O=C(O)Cn1c2c(c3cc(F)cc(Cl)c31)CN(C(=O)c1cccc3ccccc13)CC2"
# output 310

# input Dear colleague, I am looking for the recorded IC50 of the following compound: "O=C(O)Cn1c2c(c3ccccc31)CN(C(=O)c1cccc3ccccc13)CC2"
# output 780
